# fluorescence, percent of control (lower = inhibition) annotations
test.target: Cell division control protein 42 homolog (Homo sapiens) (UniProt P60953)
Sequence (P60953 whole entry, looked up): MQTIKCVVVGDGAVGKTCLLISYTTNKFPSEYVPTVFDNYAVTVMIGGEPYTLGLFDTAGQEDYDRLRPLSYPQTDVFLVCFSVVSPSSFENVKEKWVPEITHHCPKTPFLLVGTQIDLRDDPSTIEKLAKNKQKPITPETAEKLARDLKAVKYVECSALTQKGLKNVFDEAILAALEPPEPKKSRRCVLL
test.description: inhibition of fluorescent GTP binding to wildtype Cdc42 – biochemical, multiplex bead flow cytometry, Bodipy-FL-GTP, dose response (AID 1334)
conditions.used: bead-based flow cytometry, Bodipy-FL-GTP binding to GST-Cdc42; at 100 µM (top of the series) unless noted
Potency and affinity values are given separately.
measurement.kind: fluorescence, percent of control (lower = inhibition) (%)

compound	result.units	readout.value
CCCCCN1CC(O)=C(c2ccccc2)C1=N	%	82.3
O=C(NCc1ccc2c(c1)OCO2)c1ccc(CSCc2cccc(Cl)c2)o1	%	31
O=C(COC(=O)c1ccc2c(c1[N+](=O)[O-])C(=O)c1ccccc1C2=O)NC1CC1	%	29.3
COc1cc(/C=C2/C(C)=C(C#N)c3nc(N)c(C#N)c(C)c32)ccc1OCC(=O)O	%	25.9
CCN(CC)S(=O)(=O)c1ccc2c(c1)c(=O)c(C(=O)N1CCc3ccccc3C1)cn2C	%	96.7
Cc1c(NC(=O)CCN2C(=O)c3ccccc3C2=O)c(=O)n(-c2ccccc2)n1C	%	42.1
COc1cc2[nH]c(=S)nc(NCC3CCCO3)c2cc1OC (configuration not stated)	%	59.4
Oc1ccc2ccccc2c1/C=N/Nc1nnc(-c2ncc[nH]2)c2ccccc12	%	44
Cc1ccc(NC(=S)NNC(=O)c2cn(C)nc2C)cc1	%	83.7
COc1ccc(OC)c(/C=N/NC(=O)c2ccc(Cn3cc([N+](=O)[O-])cn3)o2)c1	%	30.5
CSc1nnc(-c2cc(Br)ccc2N=Cc2c(C)[nH]n(-c3ccccc3)c2=O)c(=O)[nH]1	%	24.2
O=C(O)c1nnn(Cc2ccc(Br)cc2)c1C(=O)O	%	58.8
Cc1ccc(S(=O)(=O)N(C)C)cc1NC(=O)COC(=O)c1ccc(Cl)cc1	%	39.2
O=c1c2ccc([N+](=O)[O-])cc2ncn1CCOc1ccccc1	%	48.1
O=C(O)c1cc2ccccc2nc1OCCc1ccccc1	%	55.8
COc1ccc(C(=O)Nn2c(SCC(=O)c3ccccc3)nc3ccccc3c2=O)cc1	%	71.5
O=C(O)c1cccc(-n2cccc2/C=C2/NC(=O)N(c3ccc(Cl)cc3)C2=O)c1	%	22.7
N#Cc1c2c(c(-c3ccccc3Cl)[nH]c1=S)CCCC2	%	28.8
S=C(Nc1ccc(Oc2ccccc2)cc1)NC1CCCCCC1	%	28
CCc1ccc(NC(=O)c2cc3c(C)nc4ccccc4c3o2)cc1	%	51.4
CCOC(=O)c1nn(-c2ccccc2)c(=O)cc1SC(C)C	%	51.2
CCN1C(=O)C(CC(=O)Nc2ccc(F)cc2)N(CCc2ccc(OC)cc2)C1=S (configuration not stated)	%	33.8

* * *

test.description: reduced mouse 2C T cell binding to pMHC/ICAM-1 vesicles – MLPCN validation set, flow cytometry, LFA-1/ICAM-1 modulator project, pilot screen (AID 2523)
conditions.used: 2C mouse CD8+ T cells, at 7 µM, stronger effect = lower value; measured here: CD8+/vesicle+ event percentage
# double positive events annotations

compound	result.units	double positive events
CC(=O)[C@@H]1[C@@H](C(=O)c2ccc(C)cc2)[C@]2(C(=O)Nc3ccccc32)[C@H]2C=Cc3cc(F)ccc3N12	%	61.3
COc1ccc2c(c1OC)C(=O)OC2C1c2c(cc3c(c2OC)OCO3)CCN1C (stereo not drawn)	%	60.2
Cc1ccccc1N1C(N)=NC(N)=NC1(C)C	%	63
CCc1cc2c(=O)c(-c3nc(C)cs3)c(CCCC(=O)O)oc2cc1O	%	54.4
CCc1cc(=O)oc2cc3occ(-c4ccc(OC)c(F)c4)c3cc12	%	60.2
CC(C)(C)NCC(O)COc1cccc2c1C[C@H](O)[C@H](O)C2 (stereo partly drawn)	%	62.6
COc1cccc(-n2cc(CNCc3c(C(=O)N(C)C)nc4ccc(Cl)cn34)cn2)c1	%	61.4
C[C@]12CC[C@@H]3c4ccc(O)cc4C(=O)C[C@H]3[C@@H]1CC[C@@H]2O	%	39.3
Cc1nnc(NS(=O)(=O)c2ccc(N)cc2)s1	%	61.7
Cc1cccc(-n2c(Cc3ccccc3)n[nH]c2=S)c1	%	61.2
O=c1c2[nH]c3ccccc3c2ncn1CCC1=CCCCC1	%	62.1
CC1(C)CC(C(CC(=O)N2CCCC2)Cc2ccccc2)CCO1 (stereo not drawn)	%	62.9
Cc1ccc(SCC(=O)Nc2nccs2)cc1	%	60.5
CC(C)Oc1ccc2c(=O)c(-c3ccccc3)coc2c1	%	66.7
COc1ccc(NC(=O)CC2C(=O)N(C)C(=S)N2Cc2ccncc2)cc1 (stereo not drawn)	%	54.8
O=C(COc1ccc2ccc(=O)oc2c1)c1ccccc1	%	59.9
CNC(=O)Oc1ccc2c(c1)[C@]1(C)CCN(C)[C@@H]1N2C	%	62.8
COc1ccc(-n2cc(CNCc3cccnc3)c(-c3cccc(F)c3)n2)cc1	%	64.8
CCOC(=O)N1CCc2[nH]c3ccc(C)cc3c2C1	%	64.6
CC(C)(C)C(=O)NCCCNc1ccc([N+](=O)[O-])cc1	%	67.3
COCC(C)NC(=O)c1ccc(CN2CCc3ccccc3C2)cc1 (stereo not drawn)	%	60.9
CN1CCN(CC/C=C2/c3ccccc3Sc3ccc(S(=O)(=O)N(C)C)cc32)CC1	%	68.4
COc1cc(NS(=O)(=O)c2ccc(N)cc2)nc(OC)n1	%	60.1
